FYI, the data here is from patent US20090176776A1.

Listing of entries alongside the reported pIC50.
- Tested on: HIV-1NL43
- test: Anti-HIV assay (single round), infectivity of virus produced, titered on TZM-b1 cells
- Assay type: cell-based
- condition_context: virus from NL43-transfected 293T cells, 72 hours; luciferase after two days; read-out: Infectivity 50%
Quick note: pIC50 values are minus log10 of concentrations in mol/L.

Cc1ncc(C[n+]2csc(CCOC(=O)C3C4CC5CC(C4)CC3C5)c2C)c(N)n1.Cl.[Cl-] (centres unmarked) [Compound 26] : 4.75

# assay system HIV-1NL43: give pIC50 of O=C(O)C(S)Cc1ccc(Cl)cc1 (centres unmarked) [Compound 47]
4.47

# assay system HIV-1NL43: give pIC50 of CCc1ccc(OCCCCCn2ccnc2)cc1 [Compound 58]
5.00

# assay system HIV-1NL43: give pIC50 of Cc1nc2ccccc2n1Cc1ccc(Br)cc1 [Compound 18]
4.36

# assay system HIV-1NL43: give pIC50 of CCN(CC)c1ccc(C=Nc2ccc(Sc3ccc([N+](=O)[O-])cc3)cc2)cc1 [Compound 70]
4.48

# assay system HIV-1NL43: give pIC50 of Cc1ccc(S(=O)(=O)NN=Cc2cc(Br)cc(Br)c2O)cc1 [Compound 73]
4.49

# assay system HIV-1NL43: give pIC50 of O=[N+]([O-])c1c(Cl)cc(O)c2c1C1C=CCC1C(c1ccc(Br)cc1)N2 (centres unmarked) [Compound 25]
4.75

----------
- Tested on: Luc-M7 cells
- test: Cell viability of Luc-M7 cells (Cell-Titer Glo)
- Assay type: cell-based
- Parameters: unit: μM
- condition_context: mock-infected Luc-M7 cells, 6 days
readout_type: TC50
Enter the number alone.

Cc1ncc(C[n+]2csc(CCOC(=O)C3C4CC5CC(C4)CC3C5)c2C)c(N)n1.Cl.[Cl-] (stereo not shown) : 70.4

Provide TC50 value for the following molecule: "CCOC(=O)c1c(N2C(=O)C=CC2=O)sc2c1CCCC2"
27.7

Provide TC50 value for the following molecule: "Cc1cc(F)ccc1NCc1ccccn1"
66.5

Provide TC50 value for the following molecule: "Nc1nc(-c2ccccc2Cl)cs1"
58.9

Provide TC50 value for the following molecule: "CC(C)(C)c1ccc(OCCN2CCOCC2)cc1"
125.3

Provide TC50 value for the following molecule: CC(=NNC(=O)C(O)c1ccccc1)c1ccc2c(c1)CCCC2 (stereo not shown)
36.8

Provide TC50 value for the following molecule: O=C(O)c1ccc2c(c1)C1C=CCC1C(c1ccc([N+](=O)[O-])cc1)N2 (stereo not shown)
65.8

----------
- test: MTS score (Table 1; method not described)
- Format: cell-based
- condition_context: score at nominal 10 μM; 4 = No Effect
readout_type: MTS 10 μM

COc1ccc(NS(=O)(=O)c2ccc(Br)cc2)cc1OC [Compound 14] : 2
CCc1ccc(OCCCCCn2ccnc2)cc1 [Compound 58] : 2
Cc1ccc(OCC(=O)NN=Cc2c(Br)cc(Br)c(O)c2Br)cc1 [Compound 3] : 4
Oc1ccc(C=NNc2cc(N3CCOCC3)nc(N3CCOCC3)n2)c(O)c1 [Compound 9] : 4
O=C1Nc2c(Br)cc(Br)cc2C1=NNC(=O)C(O)c1ccccc1 (centres unmarked) [Compound 50] : 4
Cc1ncc(C[n+]2csc(CCOC(=O)C3C4CC5CC(C4)CC3C5)c2C)c(N)n1.Cl.[Cl-] (centres unmarked) [Compound 26] : 4
Cc1nc2ccccc2n1Cc1ccc(Br)cc1 [Compound 18] : 1
CC(C)(C)c1ccc(OCC(=O)NN=Cc2ccc(O)c([N+](=O)[O-])c2)cc1 [Compound 38] : 4
O=C(O)c1ccc2c(c1)C1C=CCC1C(c1ccc([N+](=O)[O-])cc1)N2 (centres unmarked) [Compound 41] : 4
CC(C)(C)c1ccc(OCCN2CCOCC2)cc1 [Compound 60] : 4

Kindly consider the entry below.
Provide MTS 10 μM value for the following compound: O=C(NN=Cc1cc(Cl)cc([N+](=O)[O-])c1O)c1ccc2c(c1)OCO2 [Compound 37]
4

----------
- test: MTS score (Table 1; method not described)
- Format: cell-based
- condition_context: score at nominal 30 μM; 4 = No Effect
Listing of entries alongside the reported MTS 30 μM.

Answered cases to consult:
CC(=NNC(=O)C(O)c1ccccc1)c1ccc2c(c1)CCCC2 (stereo not drawn) : 3
COc1ccc(OCC(=O)NN=Cc2cc(O)c(O)c(Br)c2)c(Br)c1 : 2

Kindly consider the entry below.
Provide MTS 30 μM value for the following compound: O=C(O)C(S)Cc1ccc(Cl)cc1 (stereo not drawn)
1

----------
- Tested on: 293T cells
- test: Toxicity in 293T cells
- Format: cell-based, human
- Set-up: unit not given beside the values
readout_type: TC50%
Enter the number alone.

Answered cases to consult:
Cc1ccc(S(=O)(=O)NN=Cc2cc(Br)cc(Br)c2O)cc1 [Compound 73] : 178
O=C(O)C(S)Cc1ccc(Cl)cc1 (centres unmarked) [Compound 47] : 202
CCc1ccc(OCCCCCn2ccnc2)cc1 [Compound 58] : 5
Cc1nc2ccccc2n1Cc1ccc(Br)cc1 [Compound 18] : 9.1
COc1ccc(NS(=O)(=O)c2ccc(Br)cc2)cc1OC [Compound 14] : 102

Provide TC50% value for the following compound: CCN(CC)c1ccc(C=Nc2ccc(Sc3ccc([N+](=O)[O-])cc3)cc2)cc1 [Compound 70]
135

Provide TC50% value for the following compound: O=[N+]([O-])c1c(Cl)cc(O)c2c1C1C=CCC1C(c1ccc(Br)cc1)N2 (centres unmarked) [Compound 25]
174

Provide TC50% value for the following compound: Cc1ncc(C[n+]2csc(CCOC(=O)C3C4CC5CC(C4)CC3C5)c2C)c(N)n1.Cl.[Cl-] (centres unmarked) [Compound 26]
193

----------
Listing of entries alongside the reported MTS AVG 4 (No Effect).
- test: MTS score (Table 1; method not described)
- Format: cell-based
- condition_context: average of the MTS scores at 10, 30 and 100 μM
Enter the number alone.

CC(=NNC(=O)C(O)c1ccccc1)c1ccc2c(c1)CCCC2 (stereo not drawn) : 3.000
Cc1ccc(S(=O)(=O)NN=Cc2cc(Br)cc(Br)c2O)cc1 : 3.000
O=C(NN=Cc1c(Br)cc(Br)c(O)c1Br)c1ccccc1[N+](=O)[O-] : 3.667

Provide MTS AVG 4 (No Effect) value for the following compound: "CCc1ccc(OCCCCCn2ccnc2)cc1"
1.333

Provide MTS AVG 4 (No Effect) value for the following compound: "COc1ccc(OCC(=O)NN=Cc2cc(O)c(O)c(Br)c2)c(Br)c1"
2.333

Provide MTS AVG 4 (No Effect) value for the following compound: "CCN(CC)c1ccc(C=Nc2ccc(Sc3ccc([N+](=O)[O-])cc3)cc2)cc1"
3.000

Provide MTS AVG 4 (No Effect) value for the following compound: "Cc1cc(F)ccc1NCc1ccccn1"
3.000

----------
Listing of entries alongside the reported pIC50.
- target: recombinant HIV-1 capsid protein (CA) (Human immunodeficiency virus type 1 group M subtype B)
- Construct: recombinant HIV-1 capsid protein (CA)
- test: Turbidity based HIV-1 capsid assembly assay
- condition_context: initial assembly rate by turbidity; twofold dilutions over a 128 fold range; 30 μM CA, 2.25 M NaCl
Quick note: pIC50 values are minus log10 of concentrations in mol/L.

Answered cases to consult:
CC(C)(C)c1ccc(OCC(=O)NN=Cc2ccc(O)c([N+](=O)[O-])c2)cc1 : 4.46
Cc1cc(F)ccc1NCc1ccccn1 : 4.02
Cc1ccc(OCC(=O)NN=Cc2c(Br)cc(Br)c(O)c2Br)cc1 : 5.15
O=C(O)C(S)Cc1ccc(Cl)cc1 (stereo not shown) : 4.43
O=[N+]([O-])c1c(Cl)cc(O)c2c1C1C=CCC1C(c1ccc(Br)cc1)N2 (stereo not shown) : 5.00

Provide pIC50 value for the following compound: "Cc1nc2ccccc2n1Cc1ccc(Br)cc1"
4.68

Provide pIC50 value for the following compound: Cc1ncc(C[n+]2csc(CCOC(=O)C3C4CC5CC(C4)CC3C5)c2C)c(N)n1.Cl.[Cl-] (stereo not shown)
4.55

----------
Listing of entries alongside the reported IC50.
- target: recombinant HIV-1 capsid protein (CA) (Human immunodeficiency virus type 1 group M subtype B, UniProt P12493)
- Construct: recombinant HIV-1 capsid protein (CA)
- test: Turbidity based HIV-1 capsid assembly assay
- condition_context: initial assembly rate by turbidity; twofold dilutions over a 128 fold range; 30 μM CA, 2.25 M NaCl
State just the number; it will be interpreted in µM.

Oc1ccc(C=NNc2cc(N3CCOCC3)nc(N3CCOCC3)n2)c(O)c1 [Compound 9] : 7
CCc1ccc(OCCCCCn2ccnc2)cc1 [Compound 58] : 25
Cc1ccc(OCC(=O)NN=Cc2ccncc2)cc1 [Compound 56] : 40

Provide IC50 value for the following compound: O=C(COc1ccc2ccccc2c1)NN=Cc1cc(O)c(O)c(Br)c1 [Compound 53]
33

Provide IC50 value for the following compound: Cc1ccc(NCC(=O)NN=Cc2c(Br)cc(Br)c(O)c2Br)cc1 [Compound 17]
11

Provide IC50 value for the following compound: O=C(O)c1ccc2c(c1)C1C=CCC1C(c1cccc([N+](=O)[O-])c1)N2 (stereo not shown) [Compound 59]
22
